Measured values drawn from PubChem BioAssay (EPA / NIEHS) for this set.

Read-out: Intercellular Adhesion Molecule 1 (ICAM1), ICAM1 (gene 3383)
Assay: BSK_KF3CT_ICAM1: BioMAP Diversity Plus: KF3CT Assay for Intercellular Adhesion Molecule 1 (ICAM1) Biomarker Activity (AID 2283067)
Conditions: primary human keratinocytes with fibroblasts; actives raise or lower the signal
Procedure: BSK_KF3CT is a cell-based, multiplexed-readout assay that uses keratinocytes and foreskin fibroblasts, a human skin primary cell co-culture, with measurements taken at 24 hours after chemical dosing in a 96-well plate.BSK_KF3CT_ICAM1 is an assay component measured in the BSK_KF3CT assay. It measures ICAM-1 antibody related to regulation of gene expression using ELISA technology.Data from the assay component BSK_KF3CT_ICAM1 was analyzed into 1 assay endpoint. […]
The source made the active and inactive calls. How the source made its calls: active means hit-call score of the fitted dose curve at least 0.9, where 1 is the maximum; inactive means score below 0.9.
Possible outcomes: 1.0 = active, 0.0 = inactive

Molecule: Cc1nc(C)nc(N2C[C@@H](C)N(c3ccnc([C@@H](C)O)n3)[C@@H](C)C2)n1
Category: 0.0
//
Molecule: Cc1ccccc1Cl
Category: 0.0
//
Molecule: CC1(C)NC(=O)NC1=O
Category: 0.0
//
Molecule: COc1cc(-c2nc(NC(=O)c3cc4cc(C)cc(C)c4n3CC(=O)O)sc2CCC2CCCCC2)c(OC)cc1Cl
Category: 1.0
//
Molecule: CC(=O)Oc1ccccc1C(=O)O
Category: 0.0
//
Molecule: COCCOC[C@H](CC1(C(=O)NC2CCC(C(=O)O)CC2)CCCC1)C(=O)Oc1ccc2c(c1)CCC2 (some centres not stated)
Category: 0.0
//
Molecule: CCCCCCC(=O)OCC
Category: 0.0

---

test system: Brachyury (BRA) Protein Expression, Deisenroth Lab, TBXT (gene 6862); test: CCTE_Deisenroth_DEVTOX-GLR_Pluri_BRA: CCTE's DevTox GLR-Pluri Assay Evaluation of Brachyury (BRA) Protein Expression, Deisenroth Lab (AID 2284429)
Inconclusive results are not listed. Calls of active or inactive are those of the source. The calls were made as follows: active = hit-call score of the fitted dose curve at least 0.9, where 1 is the maximum; inconclusive = response in the unintended direction; inactive = score below 0.9.
Outcomes: T = active, F = inactive

Compound Structure: COc1ccc2c(c1)c(CC(=O)O)c(C)n2C(=O)c1ccc(Cl)cc1
Category: T
//
Compound Structure: CC(=O)Oc1ccccc1C(=O)O
Category: F
//
Compound Structure: COc1cccc2c1C(=O)c1c(O)c3c(c(O)c1C2=O)C[C@@](O)(C(=O)CO)C[C@@H]3O[C@H]1C[C@H](N)[C@H](O)[C@H](C)O1
Category: T
//
Compound Structure: O=c1[nH]cc(F)c(=O)[nH]1
Category: T

---

experiment: BSK_CASM3C_SRB: Viability Assessment in the BioMAP Diversity Plus: CASM3C Assay (AID 2283050); conditions: primary human coronary artery smooth muscle cells;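 further: total protein by SRB staining as cytotoxicity measure in parallel cultures; cells exposed to compound for 24 h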
The source made the active and inactive calls. Rule for the calls: active = hit-call score of the fitted dose curve at least 0.9, where 1 is the maximum; inactive = score below 0.9.
Labels: active, inactive

Compound: Cc1ccc(C(C)C)c(O)c1
Category: inactive
--
Compound: OC[C@@H](O)[C@@H](O)[C@H](O)[C@H](O)CO
Category: inactive
--
Compound: CCCCCCCCCCCCCCCC
Category: inactive
--
Compound: NS(=O)(=O)c1cc2c(cc1Cl)NCNS2(=O)=O
Category: inactive
--
Compound: CCCCCC(=O)O
Category: inactive
--
Compound: CC(CO)OC(C)CO (stereo not drawn) (tested in a mixture with another compound)
Category: inactive
--
Compound: CC(C)c1ccc(C(=O)N=C(N)N)cc1S(C)(=O)=O
Category: inactive
--
Compound: COc1ccc2c(c1)c(CC(=O)O)c(C)n2C(=O)c1ccc(Cl)cc1
Category: inactive
--
Compound: Clc1cc(Cl)c(Cl)cc1Cl
Category: inactive
--
Compound: O=C(O)CCCCC(=O)O
Category: inactive
--
Compound: CC(=O)Oc1ccccc1C(=O)O
Category: inactive
--
Compound: CC1(C)NC(=O)NC1=O
Category: inactive
--
Compound: CCOc1ccc2c(c1)C(C)=CC(C)(C)N2
Category: inactive
--
Compound: CCCCOC(=O)CCCCCCCCC(=O)OCCCC
Category: inactive
--
Compound: NCC1(Cc2noc(=O)[nH]2)CCCCC1
Category: inactive
--
Compound: Cc1cccc(C)c1O
Category: inactive
--
Compound: NC(=O)Cn1c(=O)cc(CCN2CCN(c3nccc4sccc34)CC2)c2ccc(F)cc21
Category: inactive
--
Compound: CCCCCCCCCCCCCO
Category: active
--
Compound: Oc1ccc2ccccc2c1N=Nc1ccccc1
Category: inactive
--
Compound: Cc1cc(=O)[nH]c(=S)[nH]1
Category: inactive
--
Compound: C1CCC(SSC2CCCCC2)CC1
Category: inactive
--
Compound: CN1CCCC1=O
Category: inactive
--
Compound: CC(=O)OCCOCCOCCOC(C)=O
Category: inactive
--
Compound: Cc1ccc(N(C)C)cc1
Category: inactive
--
Compound: CNC(=O)[C@H]1O[C@@H](n2cnc3c(NCc4cc(Cl)ccc4OCc4cc(C)no4)ncnc32)[C@H](O)[C@@H]1N
Category: inactive
--
Compound: Cc1cc(NC(=O)C(=O)O)cc(C)c1Oc1ccc(O)c2c1CCC2
Category: inactive
--
Compound: Cc1nc(-c2ccc3c(c2)CCN(CCC2CCC(NC(=O)/C=C/c4ccc(F)cc4)CC2)CC3)no1 (stereo not drawn)
Category: active
--
Compound: O=c1[nH]cc(F)c(=O)[nH]1
Category: inactive
--
Compound: CC(=O)OC/C=C(\C)CCC=C(C)C
Category: inactive
--
Compound: COCCOCCOC
Category: inactive
--
Compound: Cc1cccc(Nc2cc(Cl)nc(SCC(=O)O)n2)c1C
Category: inactive
--
Compound: CCNc1cccc(C)c1
Category: inactive
--
Compound: Cc1oc(-c2ccccc2)nc1CCOc1cccc2c1ccn2CCC(=O)O
Category: inactive
--
Compound: CC=Cc1ccc(O)c(OC)c1
Category: inactive
--
Compound: Nc1ccccc1N
Category: inactive
--
Compound: FC(F)(F)C(F)(F)C(F)(F)C(F)(F)C(F)(F)C(F)(F)CCI
Category: inactive
--
Compound: CCc1c(C(=O)NN2CCCCC2)nn(-c2ccc(Cl)cc2Cl)c1-c1ccc(Br)cc1
Category: active
--
Compound: Cc1ccc(C)c(C)c1
Category: inactive

---

assay: ATG_PPRE_CIS: Attagene CIS-FACTORIAL HepG2 Assay for human Peroxisome Proliferator-activated Response Element (PPRE) (AID 2282958); conditions: HepG2 PPRE cis-element reporter, Attagene transcription factor profiling; actives raise or lower the signal
Calls of active or inactive are those of the source. The calls were made as follows: active = hit-call score of the fitted dose curve at least 0.9, where 1 is the maximum; inactive = score below 0.9.
Outcomes: 1.0 = active, 0.0 = inactive

Molecule: Nc1ccc2c(c1)C(=O)c1ccccc1C2=O
Category: 0.0

Molecule: Nc1ccc(S(=O)(=O)c2ccc(N)cc2)cc1
Category: 0.0

Molecule: Cc1cccc([N+](=O)[O-])c1C
Category: 0.0

Molecule: CCCCC(CC)COC(=O)CC(C(=O)OCC(CC)CCCC)S(=O)(=O)O (stereo not drawn)
Category: 0.0

Molecule: Cc1ccc(Cl)cc1
Category: 0.0

Molecule: Cc1ccc2ncccc2c1
Category: 0.0

Molecule: Cc1ccc(N(C)C)cc1
Category: 0.0

Molecule: CC(C)(C)c1cc(O)c(C(C)(C)C)cc1O
Category: 1.0

Molecule: Cc1nc(-c2ccc3c(c2)CCN(CCC2CCC(NC(=O)/C=C/c4ccc(F)cc4)CC2)CC3)no1 (stereo not drawn)
Category: 0.0

Molecule: COc1ccc2c(c1)c(CC(=O)O)c(C)n2C(=O)c1ccc(Cl)cc1
Category: 1.0

Molecule: Cc1oc(-c2ccccc2)nc1CCOc1cccc2c1ccn2CCC(=O)O
Category: 1.0

Molecule: CCCCCCCCCCCCCCCC
Category: 0.0

Molecule: Clc1cc(Cl)c(Cl)cc1Cl
Category: 0.0

---

target: human Adenosine A1 Receptor (AdoRA1), ADORA1 (gene 134) (UniProt P30542); experiment: NVS_GPCR_hAdoRA1: NovaScreen (NVS) G Protein-Coupled Receptor Assay for human Adenosine A1 Receptor (AdoRA1) (AID 2283254)
Sequence (P30542 whole entry, looked up): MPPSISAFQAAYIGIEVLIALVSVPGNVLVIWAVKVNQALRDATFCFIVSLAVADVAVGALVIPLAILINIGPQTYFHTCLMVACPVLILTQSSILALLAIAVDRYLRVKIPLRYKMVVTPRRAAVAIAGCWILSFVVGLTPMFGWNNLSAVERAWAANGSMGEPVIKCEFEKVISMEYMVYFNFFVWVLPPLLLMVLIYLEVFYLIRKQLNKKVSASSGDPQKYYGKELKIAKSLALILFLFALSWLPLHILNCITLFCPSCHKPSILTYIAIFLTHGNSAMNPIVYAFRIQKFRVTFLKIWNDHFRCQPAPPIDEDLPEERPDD
Inconclusive results are not listed. The source made the active and inactive calls. Rule for the calls: active = hit-call score of the fitted dose curve at least 0.9, where 1 is the maximum; inconclusive = response in the unintended direction; inactive = score below 0.9.
Outcomes: label 1 = active, label 0 = inactive

Compound Structure: O=c1c(O)c(-c2ccc(O)c(O)c2)oc2cc(O)cc(O)c12
Category: label 0

Compound Structure: O=C(N[C@@H](Cc1ccccc1)[C@@H](O)C(=O)N1C[C@@H](O)[C@@H](O)C1)c1cc2cc(Cl)ccc2[nH]1
Category: label 1

Compound Structure: Nc1ccc2c(c1)C(=O)c1ccccc1C2=O
Category: label 1

Compound Structure: C=CCOC(=O)c1ccccc1C(=O)OCC=C
Category: label 0

---

Test: ATG_BRE_CIS: Attagene CIS-FACTORIAL HepG2 Assay for human Bone Morphogenetic Protein (BMP) Response Element (BRE) (AID 2282933)
Details: HepG2 BMP response element reporter, Attagene transcription factor profiling; actives raise or lower the signal
Description: ATG_CIS is a cell-based, multiplexed-readout assay that uses HepG2, a human liver cell line, with measurements taken at 24 hours after chemical dosing in a 24-well plate.ATG_BRE_CIS is one of 52 assay component(s) measured or calculated from the ATG_CIS assay. […] This assay endpoint, ATG_BRE_CIS, was analyzed with bidirectional fitting relative to DMSO as the negative control and baseline of activity. […]
Active and inactive are the calls of the source. How the source made its calls: active means hit-call score of the fitted dose curve at least 0.9, where 1 is the maximum; inactive means score below 0.9.
Outcome codes: Y = active, N = inactive

Molecule: Cc1oc(-c2ccccc2)nc1CCOc1cccc2c1ccn2CCC(=O)O
Category: N
--
Molecule: Cc1ccc(C)c(C)c1
Category: N
--
Molecule: C=CCOC(=O)c1ccccc1C(=O)OCC=C
Category: N
--
Molecule: CC(=O)C(C)=CC1C(C)=CCCC1(C)C (stereo not drawn)
Category: N
--
Molecule: FC(F)(F)C(F)(F)C(F)(F)C(F)(F)C(F)(F)C(F)(F)CCI
Category: N
--
Molecule: CCCCCCCCCCCCCCCCCC(=O)O
Category: N
--
Molecule: COc1cc(-c2nc(NC(=O)c3cc4cc(C)cc(C)c4n3CC(=O)O)sc2CCC2CCCCC2)c(OC)cc1Cl
Category: Y
--
Molecule: CCCCCCCCCCC
Category: N
